Numbers sourced from PubChem BioAssay (NCI).

- Protocol details: NCI Yeast Anticancer Drug Screen. Data for the bub3 strain (AID 167)
- Conditions used: S. cerevisiae bub3 mutant strain, at 50.0 µM, active compounds read high
Compounds without any hit were thinned out: in the full panel of roughly 79,000, 15% have a hit.
Listing: growth inhibition of selected compounds
Give your result in % as a bare value.

• C=CCN1C(N)=C(C#N)C(C#N)(C#N)C1CCC (stereo not drawn) = -16.6
• Nc1nc(N)c2nc(/C=C/c3ccc4c(c3)OCO4)cnc2n1 = -9.1
• CC1OC(=O)/C(=C\N(C)C)C1=O (stereo not drawn) = 7.75
• O=[N+]([O-])c1ccc2c(ccn2C2OCC(O)C(O)C2O)c1 (stereo not drawn) = 18.1
• CCOC(=O)CCCOc1ccccc1 = 16.1

Field: next compound
Endpoint output: growth inhibition of `CCOC(=O)/C=C(\C)NC` . Value?
-47

###

- Protocol details: NCI Yeast Anticancer Drug Screen. Data for the mec2-1 strain (AID 157)
- Conditions used: S. cerevisiae mec2-1 strain, at 50.0 µM, active compounds read high
This is part of a sample that, as a whole, favours compounds with a hit. Of some 79,000 tested, about 15% had one in any assay.
Measured parameter: growth inhibition (%)
Express the result in % but write the number alone.

Solved entries (count: 5):
• Cc1cc(OC(N)=S)cc(C)c1Cl = 4.2
• FCCCCSc1ncnc2nc[nH]c12 = -15.2
• CN(C)c1ccc(SSc2ccc(N(C)C)cc2)cc1 = -20.6
• CCCOc1cc2c(cc1C(C)c1ccc(OC)cc1)OCO2 (stereo unspecified) = -4.35
• NC(Cc1cccnn1)C(=O)O (stereo unspecified) = -22.8

Which growth inhibition value belongs to `O=c1[nH]nc(Cc2ccccc2)n1CCCl` ?
13.8

Which growth inhibition value belongs to `O=C1c2ccccc2SC[C@@H]2CCCN12` ?
-7.75

Quick one: growth inhibition for N#Cc1c[nH]c2cccc([N+](=O)[O-])c12 (tested in a mixture with another compound) ?
-10.9

Bench note: what growth inhibition did CCOC1=C([N+](=O)[O-])C(c2ccccc2)NC1=O (stereo unspecified) show?
-0.6

Reported growth inhibition for `CCOC(=O)c1cc(C)[nH]n1` : what is it?
-26.1

Which value of growth inhibition has been reported for `CCC(=O)CCc1ccc(OC)cc1` in the records?
-6.75

Requested field: growth inhibition. Item: `O=C(O)CCC(=O)Nc1ccc(Cl)cc1`
5.7

Sample `COc1ccc(Cl)cc1NC(=O)Nc1ccc(F)c([N+](=O)[O-])c1` — what was its growth inhibition?
38

Can you share its growth inhibition? I mean this molecule: `NC(=Nc1ccc(S(=O)(=O)Nc2cnccn2)cc1)/N=C(/N)Nc1ccc(Br)cc1`
3.9

growth inhibition lookup needed for `COC(=O)c1nc(=S)[nH]c(C(=O)OC)c1C(=O)c1ccc(C)cc1` , thanks.
-7.15

GET /values?readout=growth inhibition&item= O=C1C2C(C(=O)N1c1ccccc1)C1(c3cccnc3)NC(=O)C2(Cc2cccnc2)c2ccccc21 (stereo unspecified)
-5.85

Tell me the measured growth inhibition of `COC(=O)c1cnccn1` , please.
-1.35

// returns reported growth inhibition for input `Nc1nc(NCCO)c(N=O)c(=O)[nH]1`
-4.1

Param item = `O=C(Nc1ccc(Br)cn1)c1sc2ccccc2c1Cl` ; retrieve measured growth inhibition.
-9.7

Request the reported growth inhibition associated with Cc1ccc(NC(=O)CC2Sc3ccccc3NC2=O)c(C)c1 (stereo unspecified)
-7.35

Look up growth inhibition for this molecule: `CC(=O)Nc1ccc(/C=N/Nc2nc3ccccc3s2)cc1`
-11
